Target: BRM (Homo sapiens)
Sequence (P51531 whole entry): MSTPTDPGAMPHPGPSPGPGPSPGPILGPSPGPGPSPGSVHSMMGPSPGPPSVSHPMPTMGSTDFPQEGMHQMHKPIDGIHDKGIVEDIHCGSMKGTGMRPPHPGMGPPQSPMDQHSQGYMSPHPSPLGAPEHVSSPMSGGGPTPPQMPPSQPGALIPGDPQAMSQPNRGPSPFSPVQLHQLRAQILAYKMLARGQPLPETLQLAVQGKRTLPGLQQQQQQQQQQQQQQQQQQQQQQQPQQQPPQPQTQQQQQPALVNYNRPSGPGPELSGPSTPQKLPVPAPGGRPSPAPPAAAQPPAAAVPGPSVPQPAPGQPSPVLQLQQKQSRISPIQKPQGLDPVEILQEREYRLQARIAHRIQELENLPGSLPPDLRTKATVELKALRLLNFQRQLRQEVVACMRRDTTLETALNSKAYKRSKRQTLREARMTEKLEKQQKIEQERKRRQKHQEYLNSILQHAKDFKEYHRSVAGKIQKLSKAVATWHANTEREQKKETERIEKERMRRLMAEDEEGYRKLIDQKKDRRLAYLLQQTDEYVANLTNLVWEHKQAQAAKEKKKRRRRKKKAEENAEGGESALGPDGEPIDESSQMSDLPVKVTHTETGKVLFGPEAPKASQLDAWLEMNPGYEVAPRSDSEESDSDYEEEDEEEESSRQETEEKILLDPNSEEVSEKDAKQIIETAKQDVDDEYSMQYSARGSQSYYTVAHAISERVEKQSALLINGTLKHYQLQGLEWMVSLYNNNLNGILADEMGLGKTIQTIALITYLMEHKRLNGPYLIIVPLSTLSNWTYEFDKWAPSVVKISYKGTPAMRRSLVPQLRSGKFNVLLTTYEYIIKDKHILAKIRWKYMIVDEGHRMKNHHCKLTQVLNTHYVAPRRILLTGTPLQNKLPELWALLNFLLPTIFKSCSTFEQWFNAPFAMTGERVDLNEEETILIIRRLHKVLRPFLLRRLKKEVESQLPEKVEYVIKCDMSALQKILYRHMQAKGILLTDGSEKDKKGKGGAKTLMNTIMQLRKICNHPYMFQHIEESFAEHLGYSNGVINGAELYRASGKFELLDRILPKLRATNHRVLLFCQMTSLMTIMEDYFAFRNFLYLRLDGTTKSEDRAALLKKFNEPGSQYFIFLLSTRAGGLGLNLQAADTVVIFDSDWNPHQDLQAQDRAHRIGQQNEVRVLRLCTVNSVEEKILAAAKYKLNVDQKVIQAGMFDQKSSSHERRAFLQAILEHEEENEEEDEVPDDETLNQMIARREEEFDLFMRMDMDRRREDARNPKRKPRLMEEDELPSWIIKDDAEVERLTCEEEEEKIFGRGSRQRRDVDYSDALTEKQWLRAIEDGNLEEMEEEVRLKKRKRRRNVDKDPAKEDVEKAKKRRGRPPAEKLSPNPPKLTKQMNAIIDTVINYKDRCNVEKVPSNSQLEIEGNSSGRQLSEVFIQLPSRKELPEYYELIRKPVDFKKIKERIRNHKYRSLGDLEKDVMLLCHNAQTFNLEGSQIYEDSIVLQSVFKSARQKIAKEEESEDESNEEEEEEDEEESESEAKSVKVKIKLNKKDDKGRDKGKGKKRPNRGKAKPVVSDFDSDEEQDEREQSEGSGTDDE
Experiment: ATPase catalytic activity assay (ADP-Glo), BRM
Conditions: BRM ATPase: IC50 (uM), 30 nM BRM, 400 μM ATP
IC50 overview

| COMPOUND | MEASUREMENT_TARGET | IC50 |
| --- | --- | --- |
| COCCNC(=O)c1cccc(C#Cc2ccnc(CNC(=O)c3ccc4c(c3)[C@](C)(C#N)COC4)c2)c1 [Compound 83] | BRM (Homo sapiens) | < 0.1 µM |
| COC1CN(c2cncc(-c3ccc4cnc(CNC(=O)c5ccc6c(c5)[C@](C)(C#N)COC6)cc4n3)n2)C1 [Compound 409] | BRM (Homo sapiens) | < 0.1 µM |
| COC(=O)N1CCCC(c2ccc3cnc(CNC(=O)c4ccc5c(c4)[C@](C)(C#N)COC5)cc3n2)C1 (some centres unmarked) [Compound 121] | BRM (Homo sapiens) | > 1 µM |
| C[C@@]1(C#N)COCc2ccc(C(=O)NCc3cc(N4Cc5ccncc5C4)ccn3)cc21 [Compound 53] | BRM (Homo sapiens) | 0.1 to 0.5 µM |
| C[C@@]1(C#N)COCc2ccc(C(=O)NCc3cc4nc(-c5ccn6nccc6c5)ccc4cn3)cc21 [Compound 459] | BRM (Homo sapiens) | < 0.1 µM |
| O=C(NCc1cc(C#Cc2ccccc2)ccn1)c1ccc2c(c1)[C@@](F)(C(F)F)COC2 [Compound 47] | BRM (Homo sapiens) | 0.1 to 0.5 µM |
| C[C@@]1(C#N)COCc2ccc(C(=O)NCc3cc4nc(-c5ccnc(N6CC7(COC7)C6)n5)ccc4cn3)cc21 [Compound 403] | BRM (Homo sapiens) | < 0.1 µM |
| CN(C)C(=O)c1cccc(C#Cc2ccnc(CNC(=O)c3ccc4c(c3)[C@](C)(C#N)COC4)c2)c1 [Compound 84] | BRM (Homo sapiens) | 0.1 to 0.5 µM |

---

Biological target: BRG-1 (Homo sapiens, UniProt P51532)
Sequence (P51532 whole entry): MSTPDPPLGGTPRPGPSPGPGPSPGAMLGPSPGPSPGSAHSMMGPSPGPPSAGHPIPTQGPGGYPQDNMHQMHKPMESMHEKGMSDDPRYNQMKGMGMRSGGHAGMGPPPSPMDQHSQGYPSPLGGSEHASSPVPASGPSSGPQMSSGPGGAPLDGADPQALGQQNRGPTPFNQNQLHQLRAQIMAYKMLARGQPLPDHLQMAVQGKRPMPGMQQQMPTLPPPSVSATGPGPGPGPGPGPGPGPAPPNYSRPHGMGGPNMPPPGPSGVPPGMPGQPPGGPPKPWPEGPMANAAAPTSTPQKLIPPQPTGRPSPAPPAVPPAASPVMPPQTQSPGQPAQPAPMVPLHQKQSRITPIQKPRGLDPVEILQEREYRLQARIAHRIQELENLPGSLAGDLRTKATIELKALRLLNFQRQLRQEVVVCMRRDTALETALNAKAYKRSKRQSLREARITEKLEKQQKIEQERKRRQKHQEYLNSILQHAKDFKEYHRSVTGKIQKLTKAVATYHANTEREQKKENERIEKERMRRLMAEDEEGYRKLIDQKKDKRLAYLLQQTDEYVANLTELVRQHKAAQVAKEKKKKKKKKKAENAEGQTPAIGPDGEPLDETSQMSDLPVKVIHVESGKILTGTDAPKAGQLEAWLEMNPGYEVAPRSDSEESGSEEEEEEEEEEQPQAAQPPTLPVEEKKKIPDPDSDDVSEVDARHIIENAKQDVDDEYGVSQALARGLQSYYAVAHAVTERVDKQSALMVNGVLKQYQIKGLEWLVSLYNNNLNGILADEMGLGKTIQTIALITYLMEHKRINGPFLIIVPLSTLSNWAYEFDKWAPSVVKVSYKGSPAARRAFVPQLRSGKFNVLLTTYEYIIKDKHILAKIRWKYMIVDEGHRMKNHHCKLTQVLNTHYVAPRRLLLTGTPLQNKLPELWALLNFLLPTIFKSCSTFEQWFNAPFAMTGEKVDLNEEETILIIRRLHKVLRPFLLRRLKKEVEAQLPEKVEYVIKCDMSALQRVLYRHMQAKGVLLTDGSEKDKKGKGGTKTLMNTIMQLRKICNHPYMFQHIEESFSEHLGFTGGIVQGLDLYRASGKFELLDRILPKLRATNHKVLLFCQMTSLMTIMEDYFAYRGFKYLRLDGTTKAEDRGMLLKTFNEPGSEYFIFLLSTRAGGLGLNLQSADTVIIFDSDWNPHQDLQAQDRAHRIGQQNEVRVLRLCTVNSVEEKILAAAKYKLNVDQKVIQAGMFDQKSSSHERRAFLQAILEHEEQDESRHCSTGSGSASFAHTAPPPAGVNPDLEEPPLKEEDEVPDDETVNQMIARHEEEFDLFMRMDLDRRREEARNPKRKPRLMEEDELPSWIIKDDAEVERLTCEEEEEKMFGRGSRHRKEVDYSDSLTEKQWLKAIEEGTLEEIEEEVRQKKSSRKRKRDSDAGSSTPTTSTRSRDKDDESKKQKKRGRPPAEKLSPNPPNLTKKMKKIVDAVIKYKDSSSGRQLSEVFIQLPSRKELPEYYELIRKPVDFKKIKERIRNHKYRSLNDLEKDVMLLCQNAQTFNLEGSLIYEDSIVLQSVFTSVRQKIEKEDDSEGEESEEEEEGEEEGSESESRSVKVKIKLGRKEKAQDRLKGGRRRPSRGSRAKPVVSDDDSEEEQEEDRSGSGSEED
Assay: ATPase catalytic activity assay (ADP-Glo), BRG-1
Conditions: 1 h, read-out: BRG1 Max % Inhibition, ADP-Glo, 30 nM BRG-1, 400 μM ATP
Reported Emax values are given for each entry in this list.

| SMILES_TEXT | Emax (%) |
| --- | --- |
| COc1nn(C(F)F)cc1-c1ccc2cnc(CNC(=O)c3ccc4c(c3)[C@](C)(C#N)COC4)cc2n1 | 86 |
| C[C@@]1(F)COCc2ccc(C(=O)NCc3cc4nc(-c5ccc(=O)n(C6CC6)n5)ccc4cn3)cc21 | 74 |
| Cn1cc(-c2ccc3cnc(CNC(=O)c4ccc5c(c4)[C@](C)(C#N)COC5)cc3n2)c(F)n1 | 62 |
| C[C@@]1(C#N)COCc2ccc(C(=O)NCc3cc4nc(-c5ccnc(N6CC[C@@H](F)C6)n5)ccc4cn3)cc21 | 94 |
| C[C@@]1(F)COCc2ccc(C(=O)NCc3cc4nc(-c5ccc(=O)n(CC(F)F)n5)ccc4cn3)cc21 | 55 |
| C[C@@]1(C#N)COCc2ccc(C(=O)NCc3cc(N4CC(c5ccccc5)C4)ccn3)cc21 | 55 |
| C[C@@]1(C#N)COCc2ccc(C(=O)NCc3cc4nc(-c5cccc(N6CCC6)n5)ccc4cn3)cc21 | 92 |
| C[C@@]1(C#N)COCc2ccc(C(=O)NCc3cc4c(cn3)CCN(c3cccc(C(F)F)n3)C4)cc21 | 38 |
| CN(C)C(=O)c1cccc(-c2ccc3cnc(CNC(=O)c4ccc5c(c4)[C@](C)(C#N)COC5)cc3n2)c1 | 40 |
| CN(C)c1cncc(-c2ccc3cnc(CNC(=O)c4ccc5c(c4)[C@](C)(C#N)COC5)cc3n2)n1 | 97 |
| O=C(NCc1cc(C#Cc2ccccc2)ccn1)c1cccc(C2(C(F)F)COC2)c1 | 44 |
| C[C@@]1(C#N)COCc2ccc(C(=O)NCc3cc4nc(-c5ccncc5)ccc4cn3)cc21 | 58 |
| C[C@@]1(C#N)COCc2ccc(C(=O)NCc3cc(N4CCc5ccc(C(F)F)cc5C4)ccn3)cc21 | 84 |
| C[C@@]1(C#N)COCc2ccc(C(=O)NCc3cc4nc(-c5ccccc5)sc4cn3)cc21 | 98 |
| C[C@@]1(C#N)COCc2ccc(C(=O)NCc3cc4nc(-c5cccc(N6CCOCC6)n5)ccc4cn3)cc21 | 100 |
| C[C@@]1(C#N)COc2ccc(C(=O)NCc3cc4nc(-c5ccccc5)ccc4cn3)cc21 | 22 |
| C[C@@]1(F)COCc2ccc(C(=O)NCc3cc4nc(-c5cccc(C6CC6)n5)ccc4nn3)cc21 | 89 |
| C[C@@]1(C#N)COCc2ncc(C(=O)NCc3cc4cc(-c5cncc(C6CC6)n5)ccc4cn3)cc21 | 97 |
| C[C@@]1(F)COCc2c(F)cc(C(=O)NCc3cc4cc(-c5cncc(N6CCC6)n5)ccc4cn3)cc21 | 97 |
| C[C@@]1(C#N)COCc2ccc(C(=O)NCc3cc4nc(-c5cc6ccccn6n5)ccc4cn3)cc21 | 68 |
| COc1ccccc1N1CCc2cnc(CNC(=O)c3ccc4c(c3)[C@](C)(C#N)COC4)cc2C1 | 25 |
| C[C@@]1(O)COCc2ccc(C(=O)NCc3cc4nc(-c5ccccc5)ccc4cn3)cc21 | 15 |
| C[C@@]1(C#N)COCc2ccc(C(=O)NCc3cc([C@H]4C[C@H](c5ccccc5)C4)ccn3)cc21 | 87 |
| C[C@@]1(C#N)COCc2ccc(C(=O)NCc3cc4nc(-c5ccccc5)sc4nn3)cc21 | 51 |
| C[C@@]1(C#N)COCc2ccc(C(=O)NCc3cc4nc(-c5cc(F)cc(F)c5)ccc4cn3)cc21 | 72 |
| C[C@@]1(C#N)COCc2ccc(C(=O)NCc3cc(N4CCc5ccccc5C4)ccn3)cc21 | 86 |
| COc1c(F)cccc1-c1ccc2cnc(CNC(=O)c3ccc4c(c3)[C@](C)(C#N)COC4)cc2n1 | 77 |
